TARGET UNDER TEST: NAD-dependent protein deacetylase sirtuin-1 (Homo sapiens) (UniProt Q96EB6)
Sequence (Q96EB6 whole entry): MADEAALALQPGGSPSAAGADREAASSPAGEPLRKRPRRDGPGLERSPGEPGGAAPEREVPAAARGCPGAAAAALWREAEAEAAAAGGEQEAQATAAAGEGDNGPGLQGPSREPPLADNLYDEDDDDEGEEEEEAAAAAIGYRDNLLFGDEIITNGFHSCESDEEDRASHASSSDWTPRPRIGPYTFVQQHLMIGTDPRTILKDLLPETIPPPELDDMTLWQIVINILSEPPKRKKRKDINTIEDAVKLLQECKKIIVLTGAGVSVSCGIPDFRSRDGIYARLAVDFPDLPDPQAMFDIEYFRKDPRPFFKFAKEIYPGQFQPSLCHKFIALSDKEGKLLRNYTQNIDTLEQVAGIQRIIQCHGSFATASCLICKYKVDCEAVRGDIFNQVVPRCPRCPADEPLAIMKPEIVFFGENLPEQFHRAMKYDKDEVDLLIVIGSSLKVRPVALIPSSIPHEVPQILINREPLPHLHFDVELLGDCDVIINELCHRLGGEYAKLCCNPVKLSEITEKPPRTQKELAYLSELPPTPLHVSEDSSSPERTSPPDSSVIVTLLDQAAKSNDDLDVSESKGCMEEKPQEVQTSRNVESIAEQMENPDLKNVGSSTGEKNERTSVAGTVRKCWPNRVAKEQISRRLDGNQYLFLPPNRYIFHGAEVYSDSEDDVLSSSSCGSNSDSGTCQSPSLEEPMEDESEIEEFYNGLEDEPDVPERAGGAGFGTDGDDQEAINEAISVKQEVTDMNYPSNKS
TEST DETAILS: Inhibition of human recombinant SIRT1 at 60 uM
Calls of active or inactive are those of the source. The calls are words filed in the database; no cut-off is given here.
RESULT TYPE: inhibition

{"COMPOUND": "O=C1Oc2ccc3ccccc3c2CC1C(=O)c1ccc(Cl)cc1 (stereo not given)", "RESULT TYPE": "inhibition", "TEST VALUE": "27%"}
{"COMPOUND": "O=C(c1ccccc1I)c1cc2c(ccc3ccccc32)oc1=O", "RESULT TYPE": "inhibition", "TEST VALUE": "inactive"}
{"COMPOUND": "O=C(c1ccc(Cl)cc1)c1cc2c(ccc3ccccc32)oc1=O", "RESULT TYPE": "inhibition", "TEST VALUE": "6%"}
{"COMPOUND": "O=c1[nH]c(=S)[nH]c(-c2cccc(F)c2)c1Cc1c(O)ccc2ccccc12", "RESULT TYPE": "inhibition", "TEST VALUE": "87.8%"}
{"COMPOUND": "O=C(c1cccc([N+](=O)[O-])c1)c1cc2c(ccc3ccccc32)oc1=O", "RESULT TYPE": "inhibition", "TEST VALUE": "inactive"}
{"COMPOUND": "O=C(c1ccccc1Br)c1cc2c(ccc3ccccc32)oc1=O", "RESULT TYPE": "inhibition", "TEST VALUE": "38%"}
{"COMPOUND": "O=C(c1ccccc1C(F)(F)F)c1cc2c(ccc3ccccc32)oc1=O", "RESULT TYPE": "inhibition", "TEST VALUE": "21%"}
{"COMPOUND": "O=C(c1ccccc1F)c1cc2c(ccc3ccccc32)oc1=O", "RESULT TYPE": "inhibition", "TEST VALUE": "3.3%"}
{"COMPOUND": "O=c1[nH]c(=S)[nH]c(-c2cccc(Br)c2)c1Cc1c(O)ccc2ccccc12", "RESULT TYPE": "inhibition", "TEST VALUE": "4.8%"}
{"COMPOUND": "O=c1[nH]c(=S)[nH]c(-c2ccc(C(F)(F)F)cc2)c1Cc1c(O)ccc2ccccc12", "RESULT TYPE": "inhibition", "TEST VALUE": "15.1%"}
